B1: library; a variant is named by its letters at N, in order (parent)
chain: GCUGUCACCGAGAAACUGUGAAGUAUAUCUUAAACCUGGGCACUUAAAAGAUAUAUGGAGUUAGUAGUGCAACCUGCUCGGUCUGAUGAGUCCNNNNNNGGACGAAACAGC

- Variants of: B1
- assay explanation: normalized RNA/DNA level with ligand (relative to sTRSVctl = 100) (log10 (% of sTRSVctl)); HEK293T; ligand: cyclic di-GMP (c-di-GMP-II aptamer); ligand concentration (+) RNA-Seq: 1 mM; higher = less ribozyme self-cleavage, higher mRNA level
- assay setup: reporter: mCherry (pCS4076), ligand present: yes
readout label: normalized RNA/DNA level with ligand (log10)

>  <change>
GCAGCG

>  <quantitative readout>
1.92

$$$$
>  <change>
UUACCA

>  <quantitative readout>
1.84

$$$$
>  <change>
GACGGC

>  <quantitative readout>
1.72

$$$$
>  <change>
UACUGA

>  <quantitative readout>
1.82

$$$$
>  <change>
CGGGGA

>  <quantitative readout>
1.64

$$$$
>  <change>
AGGCGG

>  <quantitative readout>
1.88

$$$$
>  <change>
AUAAUG

>  <quantitative readout>
1.75

$$$$
>  <change>
UGGUGU

>  <quantitative readout>
1.81

$$$$
>  <change>
CGAUCA

>  <quantitative readout>
1.74

$$$$
>  <change>
GGUAUG

>  <quantitative readout>
1.74

$$$$
>  <change>
CAAGCA

>  <quantitative readout>
1.76

$$$$
>  <change>
AGGAUC

>  <quantitative readout>
1.78

$$$$
>  <change>
CACAUC

>  <quantitative readout>
1.74

$$$$
>  <change>
UACUGC

>  <quantitative readout>
1.83

$$$$
>  <change>
UGUGAC

>  <quantitative readout>
1.79

$$$$
>  <change>
GUGUCC

>  <quantitative readout>
1.86

$$$$
>  <change>
AGGUCC

>  <quantitative readout>
1.94

$$$$
>  <change>
GUGCUC

>  <quantitative readout>
1.65

$$$$
>  <change>
AUGGGU

>  <quantitative readout>
1.74

$$$$
>  <change>
UUGUCG

>  <quantitative readout>
1.89

$$$$
>  <change>
AGUGAA

>  <quantitative readout>
1.54

$$$$
>  <change>
AUGGGC

>  <quantitative readout>
1.79

$$$$
